System: U-2932
test-name: growth inhibition by drug plus 177Lu-lilotomab satetraxetan (1 - RLU/untreated control) (fraction); higher = stronger inhibition
experimental-context: 10 nM; time (day): 4; 177Lu-lilotomab satetraxetan 1 ug/ml
Counter-ions that a name gives are not always drawn.
readout: growth inhibition by drug plus 177Lu-lilotomab satetraxetan

Enquiry: Note down growth inhibition by drug plus 177Lu-lilotomab satetraxetan recorded for `CCN(CC)C(=S)SSC(=S)N(CC)CC`
Return: 0.0295

Enquiry: Note down growth inhibition by drug plus 177Lu-lilotomab satetraxetan recorded for CN(C)CCOc1ccc(/C(=C(/CCCl)c2ccccc2)c2ccccc2)cc1 [Toremifene Citrate (Fareston, Acapodene)]
Return: 0.144

Enquiry: Note down growth inhibition by drug plus 177Lu-lilotomab satetraxetan recorded for `Cc1[nH]c(/C=C2\C(=O)Nc3ccc(S(=O)(=O)Cc4c(Cl)cccc4Cl)cc32)c(C)c1C(=O)N1CCC[C@@H]1CN1CCCC1`
Return: -0.0543

Enquiry: Note down growth inhibition by drug plus 177Lu-lilotomab satetraxetan recorded for COc1c(C)c2c(c(O)c1C/C=C(\C)CCC(=O)O)C(=O)OC2 [Mycophenolic (Mycophenolate)]
Return: 0.131

----------
Measured growth inhibition by drug plus 177Lu-lilotomab satetraxetan by item
Test system: RIVA
test-name: growth inhibition by drug plus 177Lu-lilotomab satetraxetan (1 - RLU/untreated control) (fraction); higher = stronger inhibition
experimental-context: 10 nM; time (day): 5; 177Lu-lilotomab satetraxetan 0.5 ug/ml
Where a name gives a salt, the structure may show the parent alone.
Form field (numeric): enter value without unit.

Enquiry: Note down growth inhibition by drug plus 177Lu-lilotomab satetraxetan recorded for CNC(=O)c1ccc(N2C(=S)N(c3ccc(C#N)c(C(F)(F)F)c3)C(=O)C2(C)C)cc1F [MDV3100 (Enzalutamide)]
Return: 0.59

Enquiry: Note down growth inhibition by drug plus 177Lu-lilotomab satetraxetan recorded for `Cc1oc(S(=O)(=O)N2CCCCC2)cc1NC(=O)Nc1ccccc1`
Return: 0.585

Enquiry: Note down growth inhibition by drug plus 177Lu-lilotomab satetraxetan recorded for `O=c1[nH]nc(Sc2ncc([N+](=O)[O-])s2)n1-c1ccc2c(c1)OCCO2`
Return: 0.54

***
Enquiry: Note down growth inhibition by drug plus 177Lu-lilotomab satetraxetan recorded for `CNC(=O)c1ccccc1Sc1ccc2c(/C=C/c3ccccn3)n[nH]c2c1`
Return: 0.522

Enquiry: Note down growth inhibition by drug plus 177Lu-lilotomab satetraxetan recorded for Clc1ccc(Nc2nnc(Cc3ccncc3)c3ccccc23)cc1 [Vatalanib dihydrochloride (PTK787)]
Return: 0.527

Enquiry: Note down growth inhibition by drug plus 177Lu-lilotomab satetraxetan recorded for `COC(=O)Nc1ccc(-c2nc(N3CCOCC3)c3cnn(C4CCN(C(=O)OC)CC4)c3n2)cc1`
Return: 0.677

Enquiry: Note down growth inhibition by drug plus 177Lu-lilotomab satetraxetan recorded for `CC(C)(C)c1[nH]cnc1/C=c1\[nH]c(=O)/c(=C/c2ccccc2)[nH]c1=O`
Return: 0.548

Enquiry: Note down growth inhibition by drug plus 177Lu-lilotomab satetraxetan recorded for `Cc1ccc(NC(=O)c2ccc(CN3CC[C@H](N(C)C)C3)c(C(F)(F)F)c2)cc1Nc1nccc(-c2cncnc2)n1`
Return: 0.652

Enquiry: Note down growth inhibition by drug plus 177Lu-lilotomab satetraxetan recorded for `C[C@H](NC(=O)Cc1cc(F)cc(F)c1)C(=O)N[C@@H]1C(=O)N(C)c2ccccc2-c2ccccc21`
Return: 0.458
